# Test system: MDA-MB-435
# assay_summary: Cytotoxicity against human MDA-MB-435 cells after 72 hrs by cell proliferation assay
# Assay type: functional, cell-based
# measurement_setup: mda-mb-435
value_kind: IC50

{"molecule_smiles": "C[C@@]12C(=O)CC[C@]3(C)[C@@H]4CC[C@@]5(C)[C@@H](O)CO[C@H]5C4=C[C@@H](OC1=O)[C@@H]23", "assay_target": "MDA-MB-435", "value_kind": "IC50", "observed_value": "Not Active"}
{"molecule_smiles": "COc1cc2c(c3occc13)[C@@H](O)[C@H]1OC(=O)[C@]3(C)[C@H]1[C@]21CCC3(O)OC1", "assay_target": "MDA-MB-435", "value_kind": "IC50", "observed_value": "Not Active"}
{"molecule_smiles": "C[C@]12C(=O)O[C@@H]3Cc4c(cc(O)c5ccoc45)[C@@]4(CCC1(O)OC4)[C@@H]32", "assay_target": "MDA-MB-435", "value_kind": "IC50", "observed_value": "Not Active"}
{"molecule_smiles": "C[C@]12C(=O)OC[C@@]3(CC[C@@H]1O)[C@@H]1CC(=O)c4ccoc4[C@@H]1C[C@@H](O)[C@H]32", "assay_target": "MDA-MB-435", "value_kind": "IC50", "observed_value": "Not Active"}
